TEST_SYSTEM: human cloned 5-HT2B receptors (Homo sapiens, UniProt P41595)
Construct: expressed in transfected cells; host or cells: CHO-K1
Sequence (P41595 whole entry): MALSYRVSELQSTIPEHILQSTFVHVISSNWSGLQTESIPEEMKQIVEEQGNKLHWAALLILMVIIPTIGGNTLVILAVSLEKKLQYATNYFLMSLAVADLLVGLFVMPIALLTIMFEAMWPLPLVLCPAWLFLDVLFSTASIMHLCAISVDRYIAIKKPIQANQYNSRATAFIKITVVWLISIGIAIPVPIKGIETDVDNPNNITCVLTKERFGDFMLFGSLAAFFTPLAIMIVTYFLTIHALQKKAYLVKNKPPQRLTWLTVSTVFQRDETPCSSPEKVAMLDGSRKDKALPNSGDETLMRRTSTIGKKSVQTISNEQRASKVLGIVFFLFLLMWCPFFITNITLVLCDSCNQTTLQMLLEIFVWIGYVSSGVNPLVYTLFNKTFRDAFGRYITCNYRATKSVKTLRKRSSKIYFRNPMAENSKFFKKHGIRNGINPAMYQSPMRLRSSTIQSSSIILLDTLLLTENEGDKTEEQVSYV
MEASUREMENT_DESCRIPTION: Human cloned 5-HT2B receptor binding assay ([3H]LSD)
EXPERIMENTAL_PARAMETERS: membranes of CHO-K1 cells expressing cloned 5-HT2B receptor, [3H]LSD 1 nM; read-out: 5-HT2B pKi (converted)
ENDPOINT: Ki

| CHEMICAL_STRING | VALUE_MEASURED |
| --- | --- |
| Nc1nc(-c2ccc3ccccc3c2)cs1 | < 10000 nM |
| Nc1nc(-c2cccc3ccccc23)cs1 | < 1000 nM |
| Cc1sc(N)nc1-c1cccc2ccccc12 | < 1000 nM |
| CC(C)c1sc(N)nc1-c1cccc2ccccc12 | < 100 nM |

====

Each entry below carries its recorded Ki.
TEST_SYSTEM: cloned human 5-HT2C receptor (Homo sapiens, UniProt P28335)
Construct: purchased Euroscreen; host or cells: CHO-K1
Sequence (P28335 33-458): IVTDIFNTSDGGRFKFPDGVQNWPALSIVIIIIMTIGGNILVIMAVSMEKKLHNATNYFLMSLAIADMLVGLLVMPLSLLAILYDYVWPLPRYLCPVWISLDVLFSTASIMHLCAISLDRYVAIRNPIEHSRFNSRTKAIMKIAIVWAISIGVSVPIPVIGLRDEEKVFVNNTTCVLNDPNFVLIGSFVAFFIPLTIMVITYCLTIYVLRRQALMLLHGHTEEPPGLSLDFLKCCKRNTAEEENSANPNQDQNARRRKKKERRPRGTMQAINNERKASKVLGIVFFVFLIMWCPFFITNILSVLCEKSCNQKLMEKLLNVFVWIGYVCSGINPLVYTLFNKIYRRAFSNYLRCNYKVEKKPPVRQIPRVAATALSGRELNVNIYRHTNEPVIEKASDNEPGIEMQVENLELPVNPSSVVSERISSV
MEASUREMENT_DESCRIPTION: Human 5-HT2C receptor binding assay ([3H]mesulergine)
EXPERIMENTAL_PARAMETERS: membranes of CHO-K1 cells expressing cloned human 5-HT2C receptor, [3H]mesulergine 1 nM; read-out: 5-HT2C pKi (converted)

| CHEMICAL_STRING | Ki |
| --- | --- |
| Nc1nc(-c2cccc3ccccc23)cs1 | > 1000 nM |
| Cc1sc(N)nc1-c1cccc2ccccc12 | > 1000 nM |
| Nc1nc(-c2ccc3ccccc3c2)cs1 | > 10000 nM |
| CC(C)c1sc(N)nc1-c1cccc2ccccc12 | > 1000 nM |

====

TEST_SYSTEM: human cloned 5-HT2B receptors (Homo sapiens, UniProt P41595)
MEASUREMENT_DESCRIPTION: Human cloned 5-HT2B cell-based functional assay (Fluo-4, block of 5-HT response)
EXPERIMENTAL_PARAMETERS: CHO.K1 cells expressing cloned 5-HT2B receptor, inhibition of the 5-HT response
Each entry below carries its recorded IC50.
ENDPOINT: IC50

| COMPOUND | VALUE_MEASURED |
| --- | --- |
| CC(C)c1sc(N)nc1-c1cccc2ccccc12 [Compound 2] | < 100 nM |
| Nc1nc(-c2cccc3ccccc23)cs1 [Compound 3, 2-amino-4-(naphth-1-yl)thiazole] | < 1000 nM |
| Nc1nc(-c2ccc3ccccc3c2)cs1 [Compound 4, 2-amino-4-(naphth-2-yl)thiazole] | < 10000 nM |
| Cc1sc(N)nc1-c1cccc2ccccc12 [Compound 1, 2-amino-5-methyl-4-(naphth-1-yl)thiazole] | < 1000 nM |

====

Each entry below carries its recorded Ki.
TEST_SYSTEM: cloned human 5-HT2A receptor (Homo sapiens, UniProt P28223)
Construct: purchased Euroscreen; host or cells: CHO-K1
Sequence (P28223 whole entry): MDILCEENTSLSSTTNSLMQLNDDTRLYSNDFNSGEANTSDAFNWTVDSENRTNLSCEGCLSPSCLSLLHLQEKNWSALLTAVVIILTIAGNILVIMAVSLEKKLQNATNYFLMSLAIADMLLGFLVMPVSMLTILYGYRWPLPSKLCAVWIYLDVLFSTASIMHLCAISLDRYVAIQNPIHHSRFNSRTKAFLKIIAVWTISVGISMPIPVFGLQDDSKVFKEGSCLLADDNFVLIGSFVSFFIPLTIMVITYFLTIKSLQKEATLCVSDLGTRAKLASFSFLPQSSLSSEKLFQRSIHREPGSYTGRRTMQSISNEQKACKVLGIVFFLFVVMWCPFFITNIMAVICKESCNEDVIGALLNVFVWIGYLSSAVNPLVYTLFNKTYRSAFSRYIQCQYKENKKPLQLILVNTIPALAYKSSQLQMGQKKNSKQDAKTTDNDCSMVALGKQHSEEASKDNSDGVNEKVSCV
MEASUREMENT_DESCRIPTION: Human 5-HT2A receptor binding assay ([3H]ketanserin)
EXPERIMENTAL_PARAMETERS: membranes of CHO-K1 cells expressing cloned human 5-HT2A receptor, [3H]ketanserin 1 nM; read-out: 5-HT2A pKi (converted)

| CHEMICAL_STRING | Ki |
| --- | --- |
| CC(C)c1sc(N)nc1-c1cccc2ccccc12 | > 1 µM |
| Cc1sc(N)nc1-c1cccc2ccccc12 | > 10 µM |
| Nc1nc(-c2cccc3ccccc23)cs1 | > 1 µM |
| Nc1nc(-c2ccc3ccccc3c2)cs1 | > 10 µM |

These measurements were taken from patent US20050154031A1.
